Listing of recorded GI50 by entry.
Tested on: CAKI-1
Test: NCI tumour cell line growth inhibition, 48 h
The source made the active and inactive calls. Cut-off read from the data, not from the text of the source: active = GI50 up to about 1.1 µM and inactive = higher.

Record excerpt, results attached:
CC1=C(O)C(=O)C2C(=O)C1C1Cc3ccccc3C21 (stereo not drawn): > 100 µM (inactive)
O=C1Nc2ccc([N+](=O)[O-])cc2/C1=N/NC(=S)Nc1ccc([N+](=O)[O-])cc1: 21.6 µM (inactive)
COC(=O)c1c(-c2ccc(Cl)cc2)cc2c3ccccc3n(C)c2c1C(=O)OC: > 100 µM (inactive)

// fetch CAKI-1 GI50 for "COC(=O)C1=C(C)N2[C@H](C(=O)O)CO[C@@]2(C)[C@H](C(=O)OC)[C@H]1c1cccc([N+](=O)[O-])c1"
> 100 µM (inactive)

Next: CCOC(=O)CCC(C(=O)OCC)n1nnc2ccc(Nc3c(C)[n+]([O-])c4cc(F)c(OCC)cc4[n+]3[O-])cc21 (stereo not drawn)
66.1 µM (inactive)

Next: COC(=O)CN(CC(=O)NCCCBr)C1CCCCC1N(CC(=O)OC)CC(=O)OC (stereo not drawn)
> 100 µM (inactive)

Next: "O=C(CSc1nnc[nH]1)C[P+](c1ccccc1)(c1ccccc1)c1ccccc1"
54.6 µM (inactive)

Next: "Cc1nc(Nc2ccc(Cl)cc2)sc1C(=O)NNc1ccc([N+](=O)[O-])cc1[N+](=O)[O-]"
23.6 µM (inactive)

###

System: SK-MEL-28
Test: NCI tumour cell line growth inhibition, 48 h
The source made the active and inactive calls. Rule as the data show it: active = GI50 up to about 1.1 µM and inactive = higher.
Listing of recorded GI50 by entry.

Record excerpt, results attached:
Cc1c2ccc3ccccc3c2c[n+]2ccccc12: 9.55 µM (inactive)
COC1OC(CBr)C(OC(c2ccccc2)(c2ccccc2)c2ccccc2)C(OC(c2ccccc2)(c2ccccc2)c2ccccc2)C1OC(c1ccccc1)(c1ccccc1)c1ccccc1 (configuration not stated): > 100 µM (inactive)
C=CCc1cccc2cc(C(=O)Nc3ccccn3)c(=N)oc12: > 100 µM (inactive)
O=C1OC(c2ccccc2)=NC1c1ccccc1 (configuration not stated): > 100 µM (inactive)
COc1cc2c(cc1OC)[Se]c1cc(OC)c(OC)cc1[Se]2: > 10 µM (inactive)

# lookup: GI50 of "O=C1NC(N2CCOCC2)=N/C1=C\c1ccccc1"
> 100 µM (inactive)

Next: NC(CCCCP(=O)(O)O)C(=O)O (configuration not stated)
> 100 µM (inactive)

###

System: SF-268
Test: NCI tumour cell line growth inhibition, 48 h
The source made the active and inactive calls. Cut-off read from the data, not from the text of the source: active = GI50 up to about 1.1 µM and inactive = higher.
Reply using exactly one outcome from active, inactive

COc1ccc2c(CC(=O)O)cc(=O)oc2c1: inactive
O=C(CSC1=NCCN1)c1ccccc1: inactive
CC(C)[C@]12O[C@H]1[C@@H]1O[C@]13[C@]1(O[C@H]1C[C@H]1C4=C(CC[C@@]13C)C(=O)OC4)[C@@H]2O [TRIPTOLIDE]: active
COc1cc(N2C(=O)C(=O)C3(CCCCC3)C2=O)cc(OC)c1OC: inactive
CN(C)CCNC(=O)c1cc([N+](=O)[O-])cc2c1Oc1ccccc1O2: inactive

Just curious, what result did "O=C1c2cc(I)ccc2N2CCN=C2N1Cc1ccccc1" get here?
inactive

Next: "O=C(CCN1CC2CCC(CC2)C1)c1cccs1"
inactive

Next: C[N+](C)(C)CC(=O)N/N=C(/CC1OC(=O)c2ccccc21)c1ccccc1O (centres undefined)
inactive
